Each recorded value in this set is attributed to patent US7998987B2.

Items are presented alongside their recorded Ki.
Biological target: c-Met (Homo sapiens, UniProt P08581)
Sequence (P08581 25-1390): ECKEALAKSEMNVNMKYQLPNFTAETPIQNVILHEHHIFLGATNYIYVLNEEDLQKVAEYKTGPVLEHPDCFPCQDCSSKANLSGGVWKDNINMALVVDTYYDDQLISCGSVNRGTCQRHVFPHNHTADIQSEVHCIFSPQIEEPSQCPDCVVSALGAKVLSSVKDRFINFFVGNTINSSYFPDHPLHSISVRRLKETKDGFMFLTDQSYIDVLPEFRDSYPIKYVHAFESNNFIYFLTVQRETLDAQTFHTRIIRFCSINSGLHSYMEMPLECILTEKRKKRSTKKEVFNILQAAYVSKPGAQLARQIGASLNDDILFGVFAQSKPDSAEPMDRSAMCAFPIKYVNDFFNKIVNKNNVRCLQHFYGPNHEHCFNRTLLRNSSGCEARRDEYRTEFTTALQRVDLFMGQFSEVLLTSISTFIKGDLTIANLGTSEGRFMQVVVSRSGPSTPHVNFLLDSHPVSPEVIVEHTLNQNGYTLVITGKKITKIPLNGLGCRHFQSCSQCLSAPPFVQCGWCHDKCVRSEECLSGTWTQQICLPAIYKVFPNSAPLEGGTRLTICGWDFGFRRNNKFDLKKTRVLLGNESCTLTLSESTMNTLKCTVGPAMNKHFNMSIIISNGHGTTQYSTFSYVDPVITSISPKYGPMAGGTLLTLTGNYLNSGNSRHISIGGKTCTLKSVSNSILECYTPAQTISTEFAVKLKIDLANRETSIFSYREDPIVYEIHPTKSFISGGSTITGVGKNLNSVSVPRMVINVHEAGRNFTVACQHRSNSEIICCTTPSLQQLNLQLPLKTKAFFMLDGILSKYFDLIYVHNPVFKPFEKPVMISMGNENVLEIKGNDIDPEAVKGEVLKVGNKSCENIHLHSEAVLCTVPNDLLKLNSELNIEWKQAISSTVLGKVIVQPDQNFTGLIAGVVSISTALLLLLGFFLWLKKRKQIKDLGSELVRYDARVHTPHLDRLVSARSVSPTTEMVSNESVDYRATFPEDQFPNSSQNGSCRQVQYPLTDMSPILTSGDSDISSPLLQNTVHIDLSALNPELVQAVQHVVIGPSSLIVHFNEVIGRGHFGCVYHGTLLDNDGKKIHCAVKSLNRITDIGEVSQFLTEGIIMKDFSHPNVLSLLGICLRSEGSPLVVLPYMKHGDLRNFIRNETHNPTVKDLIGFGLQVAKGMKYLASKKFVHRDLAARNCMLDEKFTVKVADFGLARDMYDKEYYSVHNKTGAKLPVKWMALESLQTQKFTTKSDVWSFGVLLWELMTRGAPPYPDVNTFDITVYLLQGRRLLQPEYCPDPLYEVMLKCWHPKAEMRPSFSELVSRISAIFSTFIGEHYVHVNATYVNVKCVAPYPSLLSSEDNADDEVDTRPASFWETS
Experiment: Ki determination for the inhibition of c-Met kinase activity (standard coupled enzyme system)
Format: biochemical
Conditions: coupled enzyme system, 200 μM ATP, 10 μM polyGluTyr, 80 nM c-Met, 30° C.; read-out: c-Met Ki

| molecule | Ki |
| --- | --- |
| CC(c1ccc(O)cc1)c1nnc2sc(Nc3cccc(C(F)(F)F)c3)nn12 (centres unmarked) | < 100 nM |
| CCC(C)Nc1ccc2nnc(Cc3ccc(O)cc3)n2n1 (centres unmarked) | 100 to 2000 nM |
| CC(=O)Nc1cccc(NCc2nnc3ccc(-c4ccccc4)nn23)c1 | > 2000 nM |
| Fc1ccc(Cc2nnc3sc(Nc4cccc(Cl)c4)nn23)cc1 | < 100 nM |
| Oc1ccc(Cc2nnc3sc(NCC4CCCO4)nn23)cc1 (centres unmarked) | 100 to 2000 nM |
| COc1cccc(Nc2ccc3nnc(Cc4ccc(O)c(Cl)c4)n3n2)c1 | 100 to 2000 nM |
| Oc1ccc(Cc2nnc3sc(Nc4ccc(F)cc4)nn23)cc1 | < 100 nM |
| COc1ccc(NC(=O)Nc2nn3c(Cc4ccc(O)cc4)nnc3s2)cc1 | > 2000 nM |
| c1cc2c(cc1Cc1nnc3sc(NCC4CCCO4)nn13)OCO2 (centres unmarked) | > 2000 nM |
| Oc1ccc(Cc2nnc3ccc(NC4CCCCC4)nn23)cc1 | < 100 nM |
| Oc1ccc(Cc2nnc3sc(Nc4cc(F)cc(F)c4)nn23)cc1F | < 100 nM |
| COc1cccc(Nc2nn3c(Cc4ccc(O)c(F)c4)nnc3s2)c1 | 100 to 2000 nM |
| COc1ccc(Cc2nnc3sc(-c4ccccn4)nn23)cc1 | 100 to 2000 nM |
| Oc1ccc(Cc2nnc3ccc(N[C@@H]4C[C@H]4c4ccccc4)nn23)cc1 | > 2000 nM |
